# System: NCI/ADR-RES complex spheroid viability
# testDescription: Anticancer human tumor NCI/ADR-RES cell line growth inhibition;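 also: spheroids exposed to compounds for 7 days; 100% = DMSO vehicle treated spheroids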
# assaySetup: second compound 3.16 µM; first compound 0.000316 µM; hits give low values
assayReadout: viability, T/C (%)
Give a bare numeral; the unit % is implied.

Solved cases (2 shown):
>  <molecule>
CC(C)CC(NC(=O)C(Cc1ccccc1)NC(=O)c1cnccn1)B(O)O (stereo not drawn) + NC1CCC(NC2CC2c2ccccc2)CC1

>  <viability, T/C, %>
95.9

$$$$
>  <molecule>
Cn1ncnc1C1c2n[nH]c(=O)c3cc(F)cc(c23)NC1c1ccc(F)cc1 (stereo not drawn) + NC1CCC(NC2CC2c2ccccc2)CC1

>  <viability, T/C, %>
106

$$$$

Lab note: CC[C@@]1(O)C(=O)OCc2c1cc1n(c2=O)Cc2cc3c(CN(C)C)c(O)ccc3nc2-1 + NC1CC1c1ccc(-c2cccc(O)c2)cc1 gave viability, T/C of 97

Given item CC(C)CC(NC(=O)C(Cc1ccccc1)NC(=O)c1cnccn1)B(O)O (stereo not drawn) + NC1CC1c1ccc(-c2cccc(O)c2)cc1 , the value recorded as its viability, T/C is 97.6

# viability, T/C of CC(C)CC(NC(=O)CNC(=O)c1cc(Cl)ccc1Cl)B1OC(=O)CC(CC(=O)O)(C(=O)O)O1 (stereo not drawn) + NC1CCC(NC2CC2c2ccccc2)CC1 = 92.3

Recorded viability, T/C (molecule CC(C)CC(NC(=O)CNC(=O)c1cc(Cl)ccc1Cl)B1OC(=O)CC(CC(=O)O)(C(=O)O)O1 (stereo not drawn) + NC1CC1c1ccc(-c2cccc(O)c2)cc1 ): 101

Record CC[C@@]1(O)C(=O)OCc2c1cc1n(c2=O)Cc2cc3c(CN(C)C)c(O)ccc3nc2-1 + NC1CCC(NC2CC2c2ccccc2)CC1 . Reported viability, T/C: 108

Entry Cn1ncnc1C1c2n[nH]c(=O)c3cc(F)cc(c23)NC1c1ccc(F)cc1 (stereo not drawn) + NC1CC1c1ccc(-c2cccc(O)c2)cc1 ; viability, T/C = 105
